Sourced from PubChem BioAssay (NCI)

- Test system: KM12 colon
- assay method text: NCI tumour cell line growth inhibition, 48 h; in the data active = GI50 below about 0.43 µM; inactive = the rest
Hello, when you answer, please use one of the following outcomes: Y for active, N for inactive

compound	experimental system	class assignment
CSc1ccccc1C#C/C=C\C#Cc1ccccc1N	KM12 colon	N
COC(=O)C1=CN(CC2=CC(=O)C(C)=CC2=O)C=C(C(=O)OC)C1c1cccc(OC)c1	KM12 colon	N
CN1CC[C@@H](c2c(O)cc(O)c3c(=O)cc(-c4ccc(C(F)(F)F)cc4Cl)oc23)[C@@H]1CO	KM12 colon	N
CCc1ccc(/C=C/c2ccc(O)c3ncccc23)[n+](C)c1	KM12 colon	N
CC(C)OC(=O)[C@H](C)NP(=O)(OC[C@H]1O[C@@H](n2ccc(=O)[nH]c2=O)[C@](C)(F)[C@@H]1O)Oc1ccccc1 (some centres undefined)	KM12 colon	N

Tell me the recorded outcome of this test for `O=C(Nc1ccc(Cl)c(C(F)(F)F)c1)c1ccc(NC2=C(Cl)C(=O)N(Cc3ccccc3)C2=O)cc1` .
N

Recorded call for `O=C1CCC/C=C\C[C@H]2C=CC(=O)/C2=C/C[C@H](C/C=C\CC(F)(F)F)O1` ?
Y

# lookup: test call for COc1cccc2c1C(=O)c1c(O)c3c(c(O)c1C2=O)C[C@@](O)(/C(C)=N/NC(=O)c1ccc(Cl)cc1)C[C@@H]3OC1CC(N)C(O)C(C)O1 (some centres undefined)
Y

Lab log entry: `CN(C)c1ccc(N=Nc2ccccn2)c(O)c1` — outcome as called in the assay?
N
